Experiment: Oral bioavailability in C57BL/6 mouse at 6 umol/kg dosed in HS15/propylenglycol/citrate buffer, pH 4.75, 50 mM (10/5/85, v/v/v) by LC/MS/MS analysis
Format: ADME, organism-based
Conditions: in vivo
readout name: bioavailability (%)
Answers are plain numbers, in %.

Return reported bioavailability. Input compound: CC(C)(C)c1cccc(CN[C@H]2CS(=O)(=O)C[C@@H](Cc3cc(F)c(N)c(OC(C(F)(F)F)C(F)(F)F)c3)[C@@H]2O)c1 32

====

Organism: Homo sapiens
Experiment: Selectivity index, ratio of IC50 for human recombinant CatD to IC50 for human recombinant BACE1
readout name: Ratio IC50
Numbers only.

Please state, for each entry, its recorded Ratio IC50.
1. CC(C)(C)c1cccc(CN[C@H]2CS(=O)(=O)C[C@@H](Cc3cc(F)c(N)c(Br)c3)[C@@H]2O)c1
2. CCOc1cc(C[C@@H]2CS(=O)(=O)C[C@H](NCc3cccc(C(C)(C)C)c3)[C@H]2O)cc(F)c1N
3. CC(C)(C)c1cccc(CN[C@H]2CS(=O)(=O)C[C@@H](Cc3ccc(N)c(F)c3)[C@@H]2O)c1
4. CC(C)(C)c1cccc(CN[C@H]2CS(=O)(=O)C[C@@H](Cc3ccc(N)c(Br)c3)[C@@H]2O)c1

1. 5
2. 40
3. 5
4. 5
